biological target: human P2X4 (Homo sapiens); assay: Human P2X4 HEK Cell FLIPR Assay; conditions: HEK293 cells, agonist Bz-ATP at EC80; individual values listed where some fall outside detection range
Sequence (Q99571 whole entry): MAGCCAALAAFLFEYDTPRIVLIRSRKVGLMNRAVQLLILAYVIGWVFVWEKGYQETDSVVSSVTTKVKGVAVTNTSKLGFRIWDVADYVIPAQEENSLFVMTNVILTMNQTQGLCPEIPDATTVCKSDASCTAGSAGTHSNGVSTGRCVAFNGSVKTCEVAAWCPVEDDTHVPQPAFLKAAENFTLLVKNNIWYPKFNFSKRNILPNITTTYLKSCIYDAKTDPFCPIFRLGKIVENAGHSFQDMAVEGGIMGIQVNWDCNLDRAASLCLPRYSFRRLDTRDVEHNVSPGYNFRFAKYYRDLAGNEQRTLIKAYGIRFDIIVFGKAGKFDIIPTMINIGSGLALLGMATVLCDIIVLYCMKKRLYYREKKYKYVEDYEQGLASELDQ
I'd appreciate it if you could supply IC50 values for the items below.
Lab book: enter the figure in nM, no units written.

Sure, the documented IC50 for NS(=O)(=O)c1cc(NC(=O)Cc2ccccc2Cl)ccc1-c1cnn(CCO)c1 is 100

Sure, the documented IC50 for NS(=O)(=O)c1cc(NC(=O)Cc2ccc(C(F)F)cc2)ccc1-n1cc(Br)cn1 is 168

Sure, the documented IC50 for NS(=O)(=O)c1cc(NC(=O)Cc2c(F)ccc(F)c2Cl)ccc1-n1cc(C(F)(F)F)cn1 is 107

Sure, the documented IC50 for NS(=O)(=O)c1cc(NC(=O)Cc2cccc(F)c2)ccc1-n1cc(C(F)(F)F)cn1 is 367

Sure, the documented IC50 for NS(=O)(=O)c1cc(NC(=O)Cc2ccncc2Cl)ccc1-n1cnc(C(F)(F)F)n1 is 4650

* * *

I'd appreciate it if you could supply pIC50 values for the items below.
target: UniProt:Q99571; assay: Human P2X4 HEK Cell FLIPR Assay; conditions: HEK293 cells, agonist Bz-ATP at EC80; individual values listed where some fall outside detection range
pIC50: −log10 of the molar value.

Sure, the documented pIC50 for CC(C)Oc1cnn(-c2ccc(NC(=O)Cc3ccccc3Cl)cc2S(N)(=O)=O)c1 [Example 27] is 7.15

Sure, the documented pIC50 for NS(=O)(=O)c1cc(NC(=O)Cc2ccc(C(F)(F)F)cc2Cl)ccc1-n1ncc(C(F)(F)F)n1 [Example 414] is < 4.60

Sure, the documented pIC50 for NS(=O)(=O)c1cc(NC(=O)Cc2ccc(C(F)F)cc2)ccc1-n1cc(Cl)cn1 [Example 107] is < 4.60

* * *

biological target: human P2X4 (Homo sapiens); test: Human P2X4 HEK Cell FLIPR Assay; assay type: cell-based; details: HEK293, HEK293 cells, agonist Bz-ATP at EC80; percentage of maximal inhibition; read-out: Human P2X4 HEK Cells (FLIPR Assay) avg Efficacy [%]
observedProperty: Emax

Sure, the documented Emax for CCOc1ccccc1CC(=O)Nc1ccc(-n2cc(C(F)(F)F)cn2)c(S(N)(=O)=O)c1 is 71%

Sure, the documented Emax for COc1ccc(CC(=O)Nc2ccc(-n3cc(C(F)(F)F)cn3)c(S(N)(=O)=O)c2)c(Cl)c1 is 90%

Sure, the documented Emax for CC(C)(C)c1cc(-c2ccc(NC(=O)Cc3ccccc3Cl)cc2S(N)(=O)=O)n[nH]1 is 87%

Sure, the documented Emax for Cn1cc(-c2ccc(NC(=O)Cc3c(F)cccc3Cl)cc2S(N)(=O)=O)cn1 is 92%

Sure, the documented Emax for Cc1ccc(CC(=O)Nc2ccc(-c3ccc(Cl)nc3)c(S(N)(=O)=O)c2)c(F)c1 is 92%

Sure, the documented Emax for NS(=O)(=O)c1cc(NC(=O)Cc2ccccc2Cl)ccc1-c1cnn(Cc2ccccc2)c1 is 75%

Sure, the documented Emax for CCOc1ccccc1CC(=O)Nc1ccc(-n2cc(F)cn2)c(S(N)(=O)=O)c1 is 94%

Sure, the documented Emax for COc1nc(-c2ccc(NC(=O)Cc3ccccc3Cl)cc2S(N)(=O)=O)cs1 is 86%

Sure, the documented Emax for NS(=O)(=O)c1cc(NC(=O)Cc2ccccc2F)ccc1-c1cnn(C2CCCC2)c1 is 96%

Sure, the documented Emax for NS(=O)(=O)c1cc(NC(=O)Cc2ccccc2Cl)ccc1-n1cnc(Cl)n1 is 92%

Sure, the documented Emax for NS(=O)(=O)c1cc(NC(=O)Cc2cc(Cl)ccc2Cl)ccc1-n1cc(Cl)cn1 is 87%

Sure, the documented Emax for NS(=O)(=O)c1cc(NC(=O)Cc2ccc(C(F)F)cc2)ccc1-n1cc(Cl)cn1 is 44%

Sure, the documented Emax for NS(=O)(=O)c1cc(NC(=O)Cc2ccccc2Cl)ccc1-n1cnc(C2CCC2)n1 is 81%

Sure, the documented Emax for NS(=O)(=O)c1cc(NC(=O)Cc2cc(F)cc(F)c2)ccc1-n1cc(C(F)(F)F)cn1 is 57%

Sure, the documented Emax for COc1ccc(Cl)c(CC(=O)Nc2ccc(-n3cc(Cl)cn3)c(S(N)(=O)=O)c2)c1 is 83%

Sure, the documented Emax for NS(=O)(=O)c1cc(NC(=O)Cc2ccccc2Cl)ccc1-n1cc(F)cn1 is 85%

Sure, the documented Emax for N#Cc1cnn(-c2ccc(NC(=O)Cc3ccccc3C(F)(F)F)cc2S(N)(=O)=O)c1 is 96%

Sure, the documented Emax for NS(=O)(=O)c1cc(NC(=O)Cc2ccccc2Cl)ccc1-n1cc2ccncc2n1 is 102%

Sure, the documented Emax for Cc1ccc(Cl)c(CC(=O)Nc2ccc(-n3cc(Cl)cn3)c(S(N)(=O)=O)c2)c1 is 103%

Sure, the documented Emax for NS(=O)(=O)c1cc(NC(=O)Cc2ccccc2F)cnc1-c1cnn(C(F)F)c1 is 84%

Sure, the documented Emax for NS(=O)(=O)c1cc(NC(=O)Cc2ccccc2Cl)ccc1-c1ccc(Cl)cn1 is 73%

Sure, the documented Emax for NS(=O)(=O)c1cc(NC(=O)Cc2ccccc2Cl)ccc1-n1cc(-c2ccncn2)cn1 is 73%

Sure, the documented Emax for COc1ccc(CC(=O)Nc2ccc(-c3cncc(C(F)(F)F)c3)c(S(N)(=O)=O)c2)cc1 is 74%

Sure, the documented Emax for N#Cc1cnn(-c2ccc(NC(=O)Cc3ccc(O)cc3Cl)cc2S(N)(=O)=O)c1 is 94%

Sure, the documented Emax for COc1cc(-c2ccc(NC(=O)Cc3ccccc3Cl)cc2S(N)(=O)=O)cnc1Cl is 89%

Sure, the documented Emax for Cc1ccc(CC(=O)Nc2ccc(-c3cncc(C(F)(F)F)c3)c(S(N)(=O)=O)c2)cc1 is 58%

Sure, the documented Emax for N#Cc1cnn(-c2ccc(NC(=O)Cc3ccc(Cl)cc3Cl)cc2S(N)(=O)=O)c1 is 78%

Sure, the documented Emax for NS(=O)(=O)c1cc(NC(=O)Cc2ccccc2Cl)cnc1-n1cc(C(F)(F)F)cn1 is 69%

Sure, the documented Emax for NS(=O)(=O)c1cc(NC(=O)Cc2ccccc2Cl)ccc1-c1cn[nH]c1 is 83%

Sure, the documented Emax for NS(=O)(=O)c1cc(NC(=O)Cc2ccccc2F)ccc1-n1cc(Cl)cn1 is 88%
